# METHOD: Drug concentration in Lewis rat blood assessed as concentration of parent compound at 1 mg/kg, po measured at 4 hrs by LC-MS/MS analysis
# Assay type: ADME, organism-based
# CONDITION_LABEL: Lewis, blood, read-out: Ct
ENDPOINT_NAME: concentration at 4 h (µM)
The reply should be a number in µM, with the unit left off.

Consider the reported concentration at 4 h for these compounds:
INSERT INTO results (compound, reported_measurement) VALUES
  ('CC/C=C/CC[C@@H]1CCc2cc([C@H]3CC[C@](N)(CO)C3)ccc2C1', 0.066),
  ('CCCCCOC[C@H]1CCc2cc([C@H]3CC[C@](N)(CO)C3)ccc2C1', 0.012),
  ('CCC/C=C\CC1CCc2cc([C@H]3CC[C@](N)(CO)C3)ccc2C1 (single isomer, unassigned)', 0.01),
  ('C=CCCCC[C@@H]1CCc2cc([C@H]3CC[C@](N)(CO)C3)ccc2C1', 0.03),
  ('CCCCOC[C@@H]1CCc2cc([C@H]3CC[C@](N)(CO)C3)ccc2C1', 0.066);

Q) # lookup: concentration at 4 h of CC/C=C\CC[C@@H]1CCc2cc([C@H]3CC[C@](N)(CO)C3)ccc2C1
A) 0.165

Q) # lookup: concentration at 4 h of CCCOCCOC1CCc2cc([C@H]3CC[C@](N)(CO)C3)ccc2C1 (some centres not stated)
A) 0.046

====

# METHOD: Drug concentration in Lewis rat blood assessed as concentration of parent compound at 2 mg/kg, po measured at 4 hrs by LC-MS/MS analysis
# Assay type: ADME, organism-based
# CONDITION_LABEL: Lewis, blood, read-out: Ct
concentration at 4 h values for the molecules below.
Answer with the figure and its unit, nothing else.

Consider the reported concentration at 4 h for these molecules:
INSERT INTO measurements (molecule, endpoint_name, reported_measurement) VALUES
  ('COCCCCCC1CCc2cc([C@H]3CC[C@](N)(CO)C3)ccc2C1 (single isomer, unassigned; 24)', 'concentration at 4 h', '188 nM'),
  ('C=CCCOC[C@@H]1CCc2cc([C@H]3CC[C@](N)(CO)C3)ccc2C1', 'concentration at 4 h', '170 nM');

With those in mind, consider the next molecule.
Q) # lookup: concentration at 4 h of CCCSCC[C@@H]1CCc2cc([C@H]3CC[C@](N)(CO)C3)ccc2C1
A) 193 nM

====

# METHOD: Drug metabolism in Lewis rat blood assessed as concentration of parent compound at 1 mg/kg, po measured at 24 hrs by LC-MS/MS analysis
# Format: ADME, organism-based
# CONDITION_LABEL: Lewis, blood, read-out: Ct
ENDPOINT_NAME: concentration at 24 h (µM)
The reply should be a number in µM, with the unit left off.

Q) # lookup: concentration at 24 h of CCCCOC[C@@H]1CCc2cc([C@H]3CC[C@](N)(CO)C3)ccc2C1
A) 0.039

====

pEC50 values for the compounds below.
# ASSAY_TARGET: Sphingosine 1-phosphate receptor 1 (Homo sapiens, UniProt P21453)
# Sequence (P21453 whole entry): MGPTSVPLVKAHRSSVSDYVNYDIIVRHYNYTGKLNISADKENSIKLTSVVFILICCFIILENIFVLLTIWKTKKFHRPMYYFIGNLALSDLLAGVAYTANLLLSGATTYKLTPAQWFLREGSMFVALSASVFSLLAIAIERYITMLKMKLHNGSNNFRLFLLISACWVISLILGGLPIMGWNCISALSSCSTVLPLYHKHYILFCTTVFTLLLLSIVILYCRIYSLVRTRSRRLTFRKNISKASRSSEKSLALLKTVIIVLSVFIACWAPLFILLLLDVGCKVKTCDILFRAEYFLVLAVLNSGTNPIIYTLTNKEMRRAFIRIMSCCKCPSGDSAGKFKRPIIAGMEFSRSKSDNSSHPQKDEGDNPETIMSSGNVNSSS
# METHOD: Agonist activity at human recombinant S1P1 expressed in CHO cells assessed as stimulation of ERK phosphorylation incubated for 7 mins by microplate reader analysis
# Format: cell-based
Field pEC50 (float): negative decimal logarithm of the concentration in molar.

Q) # lookup: pEC50 of COCCCCC[C@@H]1CCc2cc([C@H]3CC[C@](N)(COP(=O)(O)O)C3)ccc2C1
A) 8.57

Q) # lookup: pEC50 of CCOCCC[C@H]1CCc2cc([C@H]3CC[C@](N)(COP(=O)(O)O)C3)ccc2C1
A) 8.28
